# System: celastrol signature
# test details: Connectivity Map query with the celastrol signature
# Type: cell-based, human
# Design: key: connectivity score, based on Kolmogorov-Smirnov statistic
# experimental parameters: enrichment of the celastrol signature (1.25 μM celastrol at 6 h, LNCaP) in the compound's Connectivity Map profiles; 6 hr treatment
quantity name: celastrol score (connectivity score)

Sample answers from the record:
compound | quantity name | result
COc1ccc2c(c1)c(CC(=O)O)c(C)n2C(=O)c1ccc(Cl)cc1 | celastrol score (connectivity score) | 0.228
CCOC(=O)C1=C(C)NC(C)=C(C(=O)OC)C1c1cccc(Cl)c1Cl (stereo not shown) | celastrol score (connectivity score) | 0.171
CCCCC/C=C/C=C1/C(=O)C=C[C@@H]1C/C=C\CCCC(=O)O | celastrol score (connectivity score) | 0.76
CCCNC(=O)NS(=O)(=O)c1ccc(Cl)cc1 [chlorpropamide] | celastrol score (connectivity score) | 0

Moving on to the next compound.
In: Recorded celastrol score (connectivity score) of COC(=O)Nc1nc2ccc(C(=O)c3cccs3)cc2[nH]1 , please.
Out: 0.517

----------
# Test system: LNCaP cells
# test details: Viability screen, luminescent ATP quantitation assay
# experimental parameters: 1 nM R1881 plus compound ~20 μM, 3 days
Documented viability screen: viability (% [ATP] normalized to R1881-treated control) across a set of compounds
Record the result as a number with its unit.

In: Recorded viability screen: viability (% [ATP] normalized to R1881-treated control) of CC(=O)[C@H]1CC[C@H]2[C@@H]3CC=C4C[C@@H](O)CC[C@]4(C)[C@H]3CC[C@]12C [pregnenolone, reference compound] , please.
Out: 91.5%

----------
Documented celastrol rank across a set of compounds
# Test system: celastrol signature
# test details: Connectivity Map query with the celastrol signature
# Type: cell-based, human
# experimental parameters: rank by celastrol score among 164 Connectivity Map compounds
# From the text: Indeed, a major challenge in cell-based chemical biology and chemical genomics is the identification of compounds' targets (Gardner et al., 2003). We hypothesized that gene expression signatures could be used to identify compound action based on the similarity of such compound-induced signatures to signatures of existing drugs of known mechanism. […]
// print number alone

compound | numeric result
CC(/C=C/C(=O)NO)=C\[C@@H](C)C(=O)c1ccc(N(C)C)cc1 | 141
CC(C)c1ccc2c(c1)c(SC(C)(C)C)c(CC(C)(C)C(=O)O)n2Cc1ccc(Cl)cc1 | 94
CO[C@H]1/C=C\C=C(/C)C(=O)NC2=CC(=O)C(NCCN(C)C)=C(C[C@@H](C)C[C@H](OC)[C@H](O)[C@@H](C)/C=C(\C)[C@@H]1OC(N)=O)C2=O [17-DMAG, reference compound] | 6
CCCCC/C=C/C=C1/C(=O)C=C[C@@H]1C/C=C\CCCC(=O)O | 7
CC/C=C\C/C=C\C/C=C\C/C=C\C/C=C\C/C=C\CCC(=O)OCC | 14
CC(=O)OCOC(c1ccc2ccccc2c1)P(=O)(OCOC(C)=O)OCOC(C)=O (stereo not drawn) | 103
Nc1c(O)cccc1C(=O)CC(N)C(=O)O (racemic) [3-hydroxy-DL-kynurenine] | 136
Cc1ccc2c(c1)C(=O)C1(O)CCN(c3ccccc3)C1=N2 (stereo not drawn) | 87

Moving on to the next compound.
In: Find celastrol rank (celastrol signature) for the entry Cc1nc2c(O)cccc2c(=O)[nH]1
Out: 156

----------
# Test system: celastrol signature
# test details: Connectivity Map query with the celastrol signature
# Format: cell-based, human
# Design: key: connectivity score, based on Kolmogorov-Smirnov statistic
# experimental parameters: enrichment of the celastrol signature (1.25 μM celastrol at 6 h, LNCaP) in the compound's Connectivity Map profiles; 6 hr treatment
Documented celastrol score (connectivity score) across a set of compounds
// print number alone

In: Recorded celastrol score (connectivity score) of COc1cc2ncnc(Nc3ccc(F)c(Cl)c3)c2cc1OCCCN1CCOCC1 , please.
Out: −0.713

In: Recorded celastrol score (connectivity score) of O=c1c(O)c(-c2ccc(O)c(O)c2)oc2cc(O)cc(O)c12 , please.
Out: −0.111

In: Recorded celastrol score (connectivity score) of [H]/N=C(/N)N/C(=N/[H])NCCc1ccccc1 , please.
Out: 0.355

In: Recorded celastrol score (connectivity score) of CO[C@H]1C[C@@H]2CC[C@@H](C)[C@@](O)(O2)C(=O)C(=O)N2CCCC[C@H]2C(=O)O[C@H]([C@H](C)C[C@@H]2CC[C@@H](O)[C@H](OC)C2)CC(=O)[C@H](C)/C=C(\C)[C@@H](O)[C@@H](OC)C(=O)[C@H](C)C[C@H](C)/C=C/C=C/C=C/1C , please.
Out: −0.283

In: Recorded celastrol score (connectivity score) of O=c1cc(N2CCOCC2)oc2c(-c3ccccc3)cccc12 , please.
Out: −0.512

In: Recorded celastrol score (connectivity score) of Cn1cnc([N+](=O)[O-])c1Sc1ncnc2nc[nH]c12 , please.
Out: 0.552

In: Recorded celastrol score (connectivity score) of Nc1ncn([C@H]2C[C@H](O)[C@@H](CO)O2)c(=O)n1 , please.
Out: 0

In: Recorded celastrol score (connectivity score) of O=c1c(O)c(-c2ccc(O)c(O)c2)oc2cc(O)ccc12 , please.
Out: 0

----------
# System: gedunin signature
# test details: Connectivity Map query with the gedunin signature
# Type: cell-based, human
# experimental parameters: rank by gedunin score among 164 Connectivity Map compounds
quantity name: gedunin rank
// print number alone

Sample answers from the record:
molecule | gedunin rank
Cc1nc2c(O)cccc2c(=O)[nH]1 | 152
C=C1[C@@H](C)[C@H]2[C@H](Cc3ccccc3)NC(=O)[C@]23OC(=O)/C=C/[C@H](O)CCC[C@@H](C)C/C=C/[C@H]3[C@@H]1O | 22
CC(C)c1ccc2c(c1)c(SC(C)(C)C)c(CC(C)(C)C(=O)O)n2Cc1ccc(Cl)cc1 | 155

In: Recorded gedunin rank of CCCCCCCCCCCCCCCC(=O)N[C@H](CN1CCOCC1)[C@H](O)c1ccccc1 (racemic) , please.
Out: 110

----------
# Test system: celastrol signature
# test details: Connectivity Map query with the celastrol signature
# Format: cell-based, human
# experimental parameters: rank by celastrol score among 164 Connectivity Map compounds
quantity name: celastrol rank
// print number alone

Sample answers from the record:
compound | quantity name | numeric result
COC(=O)CNC(=O)C(=O)OC [dimelhyloxalylglycine] | celastrol rank | 44
C/C(=C\c1ccc(C(=O)O)cc1)c1ccc2c(c1)C(C)(C)CCC2(C)C [TTNPB] | celastrol rank | 97
COc1cc2ncnc(Nc3cccc(Cl)c3)c2cc1OC [tyrphostin AG-1478] | celastrol rank | 127

In: Find celastrol rank (celastrol signature) for the entry C[C@@H]1NC(=O)[C@H]2CCCN2C(=O)[C@H](CCCCCC(=O)[C@@H]2CO2)NC(=O)[C@@H](C)NC1=O [HC toxin]
Out: 90

----------
# Tested on: celastrol signature
# test details: Connectivity Map query with the celastrol signature
# Type: cell-based, human
# experimental parameters: enrichment of the celastrol signature (1.25 μM celastrol at 6 h, LNCaP) in the compound's Connectivity Map profiles; 6 hr treatment
quantity name: celastrol score (connectivity score)
// print number alone

compound | numeric result
C[C@H](CCC(=O)O)C[C@H](C)C[C@H](C)C(=O)/C=C(\O)[C@H](C)C[C@H](C)C/C=C/[C@@H](C)[C@@H](O)[C@@H](C)[C@@H](O)C[C@@H]1CC[C@@](C)([C@H]2CC[C@@](C)([C@@H](C)O)O2)O1 [ionomycin] | 0.556
CN[C@H]1CCc2cc(OC)c(OC)c(OC)c2-c2ccc(OC)c(=O)cc21 [demecolcine] | 0
CC#CCC(C)[C@H](O)/C=C/[C@@H]1[C@H]2C/C(=C/CCCC(=O)O)C[C@H]2C[C@H]1O (some centres unmarked) [iloprost] | 0.098
O=S(=O)(c1cccc2cnccc12)N1CCCNCC1 [fasudil] | 0
C=CC[C@@H]1/C=C(\C)C[C@H](C)C[C@H](OC)[C@H]2O[C@@](O)(C(=O)C(=O)N3CCCC[C@H]3C(=O)O[C@H](/C(C)=C/[C@@H]3CC[C@@H](O)[C@H](OC)C3)[C@H](C)[C@@H](O)CC1=O)[C@H](C)C[C@@H]2OC [tacrolimus] | 0

In: Recorded celastrol score (connectivity score) of C[C@@H](N)[C@H]1CC[C@H](C(=O)Nc2ccncc2)CC1 [Y-27632] , please.
Out: 0

In: Recorded celastrol score (connectivity score) of O=CC[C@@H](O)[C@H](O)[C@H](O)CO [2-deoxy-D-glucose] , please.
Out: 0

In: Recorded celastrol score (connectivity score) of NCCNCCNCCNCCN [tetraethylenepentamine] , please.
Out: −0.039

In: Recorded celastrol score (connectivity score) of N=C1C=CC(=C(c2ccc(N)cc2)c2ccc(N)cc2)C=C1 [pararosaniline] , please.
Out: 0.579

In: Recorded celastrol score (connectivity score) of COC(=O)[C@@H]1[C@H]2C[C@H]3c4[nH]c5ccccc5c4CCN3C[C@@H]2CC[C@@H]1O [yohimbine] , please.
Out: 0

In: Recorded celastrol score (connectivity score) of CN(C)C(=N)N=C(N)N [metformin] , please.
Out: −0.029

In: Recorded celastrol score (connectivity score) of CCOC(=O)C1=C(C)NC(=S)NC1c1cccc(O)c1 (centres unmarked) [monastrol] , please.
Out: 0.226

In: Recorded celastrol score (connectivity score) of CCCCC/C=C\C/C=C\C/C=C\C/C=C\CCCC(=O)O [arachidonic acid] , please.
Out: 0

In: Recorded celastrol score (connectivity score) of O=C(/C=C/c1ccc(O)c(O)c1)c1ccc(O)cc1O [butein] , please.
Out: 0.295

In: Recorded celastrol score (connectivity score) of N=C(N)c1ccc(OCCCCCOc2ccc(C(=N)N)cc2)cc1 [pentamidine] , please.
Out: 0

In: Recorded celastrol score (connectivity score) of Clc1ccccc1C(c1ccccc1)(c1ccccc1)n1ccnc1 [clotrimazole] , please.
Out: 0.557

In: Recorded celastrol score (connectivity score) of CCCC(CCC)C(=O)O [valproic acid] , please.
Out: 0.086
